Test: Solubility determination in phosphate buffer
Assay type: physicochemical
Conditions: aqueous buffer, thermodynamic from solid; phosphate buffer pH 7.8, 37 °C; read-out: Solubility pH 7.8
Entry flag: satisfied if solubility at 48 h reaches 200 µg/mL; not satisfied if it does not.

INSERT INTO assay_data (compound, class_label) VALUES
  ('O=C(/C=C/c1ccc(Br)cc1)c1ccc(NC(=O)N2CCN(c3cc4c(cc3F)c(=O)c(C(=O)O)cn4C3CC3)CC2)cc1 [Compound 2d]', 'not satisfied'),
  ('O=C(/C=C/c1ccccc1)c1ccc(NC(=O)N2CCN(c3cc4c(cc3F)c(=O)c(C(=O)O)cn4C3CC3)CC2)cc1 [Compound 2a]', 'not satisfied'),
  ('COc1ccc(-c2nc(SCC(=O)N3CCN(c4cc5c(cc4F)c(=O)c(C(=O)O)cn5C4CC4)CC3)[nH]c(=O)c2C#N)cc1 [Compound 5g]', 'satisfied'),
  ('O=C(/C=C/c1cccc(Cl)c1)c1ccc(NC(=O)N2CCN(c3cc4c(cc3F)c(=O)c(C(=O)O)cn4C3CC3)CC2)cc1 [Compound 2b]', 'not satisfied'),
  ('O=C(/C=C/c1ccc(Cl)cc1)c1ccc(NC(=O)N2CCN(c3cc4c(cc3F)c(=O)c(C(=O)O)cn4C3CC3)CC2)cc1 [Compound 2c]', 'not satisfied'),
  ('CN(C)c1ccc(/C=C/C(=O)c2ccc(NC(=O)N3CCN(c4cc5c(cc4F)c(=O)c(C(=O)O)cn5C4CC4)CC3)cc2)cc1 [Compound 2h]', 'satisfied');

----------
Listing of entries alongside the reported MIC C. albicans (Fungi).
Tested on: C. albicans (ATCC 10,231)
Assay: Antifungal MIC, agar cup diffusion method
Assay type: cell-based, Candida albicans
Conditions: Sabouraud agar, 37 °C, 24 h
endpoint: MIC C. albicans (Fungi) (µg/mL)

INSERT INTO measurements (compound_string, unit_text, endpoint_value) VALUES
  ('N#Cc1c(-c2ccc(Cl)cc2)nc(SCC(=O)N2CCN(c3cc4c(cc3F)c(=O)c(C(=O)O)cn4C3CC3)CC2)[nH]c1=O', 'µg/mL', 2.87),
  ('N#Cc1c(-c2ccc(F)cc2)nc(SCC(=O)N2CCN(c3cc4c(cc3F)c(=O)c(C(=O)O)cn4C3CC3)CC2)[nH]c1=O', 'µg/mL', 2.51),
  ('O=C(/C=C/c1ccc(F)cc1)c1ccc(NC(=O)N2CCN(c3cc4c(cc3F)c(=O)c(C(=O)O)cn4C3CC3)CC2)cc1', 'µg/mL', 2.03),
  ('O=C(/C=C/c1ccc(Cl)cc1)c1ccc(NC(=O)N2CCN(c3cc4c(cc3F)c(=O)c(C(=O)O)cn4C3CC3)CC2)cc1', 'µg/mL', 3.89);
